Target: 5-hydroxytryptamine receptor 2A (Homo sapiens)
Test: 5-hydroxytryptamine receptor 2A (HTR2A) small molecule antagonists, cell-based qHTS assay (AID 1963586); note: nearly all actives have a fitted effect of over 45% in size
Conditions: HTR2A-CHO cells, DOI-induced calcium flux, fluorescence; series mostly up to 61.5 µM
Results filed as inconclusive are left out. Calls of active or inactive are those of the source. Calls come from the whole dose curve.
parameter: outcome

Some solved cases for reference:
INSERT INTO assay_data (compound, target, assay_result) VALUES
  ('CNC(=O)N(C)c1nc2ccccc2s1', '5-hydroxytryptamine receptor 2A (Homo sapiens)', 'inactive'),
  ('ClC1=C(Cl)[C@]2(Cl)[C@H]3[C@H]([C@H]4C=C[C@H]3C4)[C@@]1(Cl)C2(Cl)Cl', '5-hydroxytryptamine receptor 2A (Homo sapiens)', 'inactive'),
  ('CC(C)N1C(=O)N(c2ccccc2)CSC1=NC(C)(C)C', '5-hydroxytryptamine receptor 2A (Homo sapiens)', 'inactive'),
  ('C=CC(=O)OCCCCO', '5-hydroxytryptamine receptor 2A (Homo sapiens)', 'inactive'),
  ('CCCCOP(=O)(O)OCCCC', '5-hydroxytryptamine receptor 2A (Homo sapiens)', 'inactive');

Enquiry: Give the measured outcome of "OCCBr" .
Return: inactive

Enquiry: Suppose we examine the compound "[CH3][Hg][Cl]" ; what outcome value has been reported?
Return: inactive

Cited source: PubChem BioAssay (Tox21)
